measurement-target: hPOT1-DBD binding to d(GGTTAGGGTTAG) (Homo sapiens)
Sequence (Q9NUX5 1-299): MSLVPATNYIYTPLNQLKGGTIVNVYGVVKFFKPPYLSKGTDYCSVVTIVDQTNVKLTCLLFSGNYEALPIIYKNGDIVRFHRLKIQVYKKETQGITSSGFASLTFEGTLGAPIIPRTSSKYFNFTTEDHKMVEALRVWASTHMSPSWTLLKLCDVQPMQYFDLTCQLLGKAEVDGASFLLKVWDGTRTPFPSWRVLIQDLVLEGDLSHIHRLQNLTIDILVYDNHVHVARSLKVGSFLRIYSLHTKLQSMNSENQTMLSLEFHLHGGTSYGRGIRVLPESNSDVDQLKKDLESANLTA
measure-name: IC50 (µM)
Answer with a number only, understood to be in µM.

Item: "Nc1c(/N=N/c2ccc(-c3ccc(/N=N/c4cc(S(=O)(=O)O)c5ccccc5c4N)cc3)cc2)cc(S(=O)(=O)O)c2ccccc12" | IC50: 130
